# growth inhibition per record follows
Experiment: NCI Yeast Anticancer Drug Screen. Data for the rad18 strain (AID 177)
Conditions: S. cerevisiae rad18 mutant growth inhibition; at 33.0 µM; active compounds read high
About 79,000 compounds went through this panel and 15% of them were active in at least one assay; those are over-represented in the sample as a whole.
Kindly answer with a numeric value in %, unit omitted.

[[record]]
molecule = "CC(=O)N/N=C/C(C)(C)C(C)(C)/C=N/NC(C)=O"
measured_metric = "growth inhibition"
units_text = "%"
measured_result = 81

[[record]]
molecule = "O=[N+]([O-])c1cccc([N+](=O)[O-])c1S(=O)(=O)c1ccccc1"
measured_metric = "growth inhibition"
units_text = "%"
measured_result = 95

[[record]]
molecule = "Oc1cccc2c(Cl)ccnc12"
measured_metric = "growth inhibition"
units_text = "%"
measured_result = 92


Enquiry: Find the recorded growth inhibition belonging to Cc1ccc(NC(=O)/C(Cl)=C(\Cl)C(=O)O)cc1C and report it.
Return: 99

Enquiry: Find the recorded growth inhibition belonging to CCN(CC)C(C)(C)C(=O)/C=C/c1ccccc1 and report it.
Return: 3

Enquiry: Find the recorded growth inhibition belonging to CN=C(N)N/N=C/c1ccc2c(c1)Cc1ccccc1-2 and report it.
Return: 1

Enquiry: Find the recorded growth inhibition belonging to CC1=NN(c2cccc(Cl)c2)C(=O)C1 and report it.
Return: -20

Enquiry: Find the recorded growth inhibition belonging to C#CCCCc1ccccc1 and report it.
Return: -28

Enquiry: Find the recorded growth inhibition belonging to OCC(Cn1cncn1)(c1ccc(F)cc1F)n1cncn1 (stereo not drawn) and report it.
Return: 65

Enquiry: Find the recorded growth inhibition belonging to CCCCCCCCCC/C=C\C(=O)O and report it.
Return: 19

Enquiry: Find the recorded growth inhibition belonging to Cc1ccc(C2C(Cl)C(=O)N2n2cnc3ccccc3c2=O)cc1 (stereo not drawn) and report it.
Return: -7

Enquiry: Find the recorded growth inhibition belonging to COc1cc(C2SCC(=O)N2c2ccc(-c3ccc(-n4c(-c5ccccc5)nc5ccccc5c4=O)cc3)cc2)cc(OC)c1OC (stereo not drawn) and report it.
Return: 3

Enquiry: Find the recorded growth inhibition belonging to O=C1OC(CCl)CN1/N=C/c1ccc([N+](=O)[O-])o1 (stereo not drawn) and report it.
Return: 95

Enquiry: Find the recorded growth inhibition belonging to OC1CSCCCSCCSCCCSC1 and report it.
Return: -49

Enquiry: Find the recorded growth inhibition belonging to Nc1ccc2c(c1)C(=O)c1cccc(N)c1C2=O and report it.
Return: 97

----------
Assay: NCI Yeast Anticancer Drug Screen. Data for the rad50 strain (AID 155);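 further: 0% = growth of vehicle-only cultures of the same strain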
Conditions: S. cerevisiae rad50 strain growth inhibition; at 50.0 µM
About 79,000 compounds went through this panel and 15% of them were active in at least one assay; those are over-represented in the sample as a whole. Activity calls are given as the source filed them. No stated cut-off is given here; in the data, active means growth inhibition above about 70%; inactive means the rest.
Select the correct class. Options are active, inactive and nothing else.

[[record]]
compound = "c1ccc2c(c1)c1ncccc1c1nccnc21"
class = "active"

[[record]]
compound = "O=[N+]([O-])/C=C/c1ccc2ccccc2c1"
class = "active"

[[record]]
compound = "Oc1cccc2c(Cl)ccnc12"
class = "active"

[[record]]
compound = "CC(CC(C)(C)[N+](C)(C)C)[N+](C)(C)C (configuration not stated)"
class = "active"

[[record]]
compound = "COc1ccc(OC)c2cc3ccccc3cc12"
class = "active"

[[record]]
compound = "O=C(CCCN1CCC(O)(c2ccc(Cl)cc2)CC1)c1ccc(F)cc1"
class = "active"


Enquiry: Per the records of this test, what outcome belongs to COc1cc(CC2CC(c3ccc4c(c3)OCO4)OC2=O)cc(OC)c1OC (configuration not stated) ?
Return: inactive

Enquiry: Per the records of this test, what outcome belongs to Cc1cc(I)ccc1N ?
Return: active

Enquiry: Per the records of this test, what outcome belongs to O=C(Cc1csc2[n+]1C(=O)/C(=C/c1ccc(Cl)cc1)S2)Nc1ccccc1 ?
Return: active

Enquiry: Per the records of this test, what outcome belongs to CCOC(=O)c1cc(-c2ccc(Cl)cc2)c([N+](=O)[O-])n1C ?
Return: active

Enquiry: Per the records of this test, what outcome belongs to O=C(Nc1ccccc1)OCCc1ccc(Cl)c(Cl)c1 ?
Return: active

Enquiry: Per the records of this test, what outcome belongs to Cc1ccc(NC(=O)/C(Cl)=C(\Cl)C(=O)O)cc1C ?
Return: active

Enquiry: Per the records of this test, what outcome belongs to Clc1ccccc1C1OC1c1ccccc1Cl (configuration not stated) ?
Return: inactive

Enquiry: Per the records of this test, what outcome belongs to CC(=O)N/N=C/C(C)(C)C(C)(C)/C=N/NC(C)=O ?
Return: inactive

Enquiry: Per the records of this test, what outcome belongs to NC1=NS(=O)(=O)N=C(N)C1=Cc1ccc([N+](=O)[O-])o1 ?
Return: active

Enquiry: Per the records of this test, what outcome belongs to CC(O)C(O)C(O)C(/C=N\Nc1ccccc1)=N/Nc1ccccc1 (configuration not stated) ?
Return: active

Enquiry: Per the records of this test, what outcome belongs to CC(C)C1=CCC2C(=C1)CCC1C(C)(C(=O)O)CCCC21C (configuration not stated) (tested in a mixture with another compound) ?
Return: active
